System: SNB-75
measurement protocol: NCI tumour cell line growth inhibition, 48 h
Active and inactive are the calls of the source. No stated cut-off is given here; in the data, active = GI50 up to about 1.1 µM and inactive = higher.
Exercise: state measured GI50 for each of the compounds provided.

// query GI50 value for entry O=C(NN1C(=O)CSC1c1ccc(Cl)c(Cl)c1)c1ccncc1 (stereo not given)
> 100 µM (inactive)

// query GI50 value for entry CSc1nc(-c2cc3c(c(SC)n2)CCCCC3)cc2c1CCCCC2
34.3 µM (inactive)

// query GI50 value for entry O=C1NC(N2CCOCC2)=N/C1=C\c1ccccc1O
> 100 µM (inactive)

// query GI50 value for entry Nc1ccc2nc3ccc(N)cc3[n+](-c3ccccc3)c2c1
42.1 µM (inactive)

// query GI50 value for entry Oc1ccc(CCc2cc(O)cc(O)c2)cc1 [DIHYDRORESVERATROL]
> 100 µM (inactive)

// query GI50 value for entry COC(=O)C1=C(c2cc(OC)c(OC)c(OC)c2)OC(c2cc(OC)c(OC)c(OC)c2)C1 (stereo not given)
23.7 µM (inactive)

// query GI50 value for entry CC(C)N(C(C)C)S(=O)(=O)CC12CCC(C/C1=N\O)C2 (stereo not given)
> 100 µM (inactive)

// query GI50 value for entry CN1C(=N\S(=O)(=O)c2ccc(Cl)cc2)/C(=N/N=P(c2ccccc2)(c2ccccc2)c2ccccc2)c2ccccc21
> 100 µM (inactive)

// query GI50 value for entry COC(=O)C1CC2(c3ccccc3)C(=O)c3ccccc3N2O1 (stereo not given)
40.5 µM (inactive)

// query GI50 value for entry Cc1c(C)c2c(c(N)c1C#N)C(=O)N(Cc1ccc(S(N)(=O)=O)cc1)C2=O
> 35.9 µM (inactive)

// query GI50 value for entry O=S1(=O)N2CN3CN(C2)CN1C3
28.8 µM (inactive)

// query GI50 value for entry O=C1Nc2ccccc2S/C1=C\c1cccc(C(F)(F)F)c1
> 100 µM (inactive)

// query GI50 value for entry COc1cc2c[n+](C)c3c(c2cc1OC)Cc1cc2c(cc1-3)OCO2
> 100 µM (inactive)

// query GI50 value for entry CCCCCC(/C=N/Nc1ccccc1)C(O)(C(F)(F)F)C(F)(F)F (stereo not given)
> 100 µM (inactive)

// query GI50 value for entry CCOC(=O)C1=C(C)NC(=S)NC1c1ccccc1 (stereo not given)
> 100 µM (inactive)

// query GI50 value for entry O=C1CC(=O)NC(NNS(=O)(=O)c2ccccc2)=N1
> 100 µM (inactive)

// query GI50 value for entry O=[N+]([O-])c1ccc(Cl)c(/C=N/C23CC4CC(CC(C4)C2)C3)c1
> 10 µM (inactive)

// query GI50 value for entry NC1=NC(=O)/C(=C/c2ccccc2[N+](=O)[O-])C(N)=N1
> 100 µM (inactive)

// query GI50 value for entry CCOC(=O)/C=C\C(C#N)(C#N)/N=C/c1ccsc1
13 µM (inactive)

// query GI50 value for entry [O-][Cl+3]([O-])([O-])O.c1ccc(/N=c2\nc(N3CCOCC3)ss2)cc1
19.9 µM (inactive)

// query GI50 value for entry N#Cc1c2c(c(Cl)n3c1nc1ccccc13)CCCC2
17.2 µM (inactive)

// query GI50 value for entry COc1ccccc1Cn1c2c(c3cc(O)ccc31)C(=O)c1ccccc1C2=O
19.2 µM (inactive)

// query GI50 value for entry COc1ccc(/C=C2\C[C@H]3[C@@H]4CC=C5C[C@@H](OC(C)=O)CC[C@]5(C)[C@H]4CC[C@]3(C)C2=O)cc1OC
> 100 µM (inactive)

// query GI50 value for entry CC1(CO)C(O)CCC2(C)C1CCC1CC3CC12CCC3(O)CO (stereo not given)
> 51.8 µM (inactive)

// query GI50 value for entry N#CI1OC(C(F)(F)F)(C(F)(F)F)c2ccccc21
13.9 µM (inactive)

// query GI50 value for entry Clc1nc(Cl)c(CBr)c(Cl)n1
8.83 µM (inactive)

// query GI50 value for entry CCOC(=O)c1c(N2CCOCC2)[nH]c(=O)c(C(c2c(Cl)cccc2Cl)c2c(O)c(C(=O)OCC)c(N3CCOCC3)[nH]c2=O)c1O
6.7 µM (inactive)

// query GI50 value for entry CC(=O)C(CN(C(C)C)C(C)C)C(c1ccccc1)c1c(O)c2ccccc2oc1=O (stereo not given)
16.7 µM (inactive)

// query GI50 value for entry CCN(CC)CCn1ncc2c3c(=O)c4cccnc4n(CCN(CC)CC)c3ccc21
9.66 µM (inactive)

// query GI50 value for entry O=C(Cn1cc(F)c(=O)[nH]c1=O)C12CC3CC(CC(C3)C1)C2
> 100 µM (inactive)

// query GI50 value for entry CC(CC[C@@H](C)C1CCC2[C@@H]3CC(O)C4CC(O)[C@@H](O)C[C@]4(C)C3CC[C@@]21C)C(C)(C)C (stereo not given in full)
> 100 µM (inactive)

// query GI50 value for entry CC(=O)c1cccc(NC(=O)/C(=N\NC(=S)NN)C2C(=O)Nc3ccccc3[S+]2[O-])c1 (stereo not given)
> 100 µM (inactive)

// query GI50 value for entry O=Cc1c2ccccc2n2ccc3c4ccccc4[nH]c3c12
> 10 µM (inactive)

// query GI50 value for entry C/C=C1/C(=Cc2[nH]c(C=c3[nH]/c(=C/C4=NC(=O)C(CC)=C4C)c(C)c3CCC(=O)O)c(CCC(=O)O)c2C)NC(=O)C1C (stereo not given)
4.79 µM (inactive)

// query GI50 value for entry COc1ccc(N2C(=O)C3ON(C(C(N)=O)c4ccccc4)C(c4cc5ccccc5c5ccccc45)C3C2=O)cc1 (stereo not given)
40.1 µM (inactive)

// query GI50 value for entry COc1ccc(-c2cc(N3CCN(c4ccc(Cl)cc4)CC3)c(C#N)c(=O)o2)cc1
3.25 µM (inactive)

// query GI50 value for entry C=C1C[C@H]2C=Nc3cc(OCCCOc4cc5c(cc4OC)C(=O)N4CC(=C)C[C@H]4C=N5)c(OC)cc3C(=O)N2C1
< 0.01 µM (active)

// query GI50 value for entry CCOC(=O)Nc1ccc(S(=O)(=O)OC)cc1.CCOC(=O)Nc1ccc(S(=O)(=O)OC)cc1.NC(=O)NCCO
> 50 µM (inactive)

// query GI50 value for entry CC(C)(C)c1ccc(O)c(C[N+](C)(C)C)c1
> 100 µM (inactive)

// query GI50 value for entry CSc1ccc2c(c1)c(CCN)c(C)n2Cc1ccccc1Cl
1.61 µM (inactive)

====

Test system: DLD-1
measurement protocol: NCI tumour cell line growth inhibition, 48 h
Activity calls are given as the source filed them. Rule as the data show it: active = GI50 up to about 1.1 µM and inactive = higher.
value type: GI50

// query GI50 value for entry Cc1ccccc1NC(=O)/C(=N/NC(=O)CC#N)C1C(=O)N(c2ccccc2)N=C1N (stereo unspecified)
79.6 µM (inactive)

// query GI50 value for entry COc1ccc(C2=C(Cl)c3cc(OC)c(OC)cc3C2)cc1OC
> 100 µM (inactive)

// query GI50 value for entry NC1=NC(=O)/C(=C/c2ccccc2[N+](=O)[O-])C(N)=N1
> 100 µM (inactive)

// query GI50 value for entry CN(C)CCNc1c([N+](=O)[O-])cc2c3c(cccc13)C(=O)N(CCN(C)C)C2=O
1.52 µM (inactive)

// query GI50 value for entry CC1CCCP(=O)(c2ccccc2)CC1 (stereo unspecified)
> 100 µM (inactive)

// query GI50 value for entry CCCCCCCCCCCCCCCCCC(=O)OCC1OC(OC)C(NC(=O)N(CCCl)N=O)C(O)C1O (stereo unspecified)
28.1 µM (inactive)

// query GI50 value for entry O=C1OC(Cc2ccccc2)(N2CCCC2=O)C1c1ccccc1 (stereo unspecified)
55.3 µM (inactive)

// query GI50 value for entry CC1=CP(=O)(OC(C)C)CC(C)=C1Cl (stereo unspecified)
> 100 µM (inactive)

// query GI50 value for entry Cc1nc(-n2nc(-c3ccccc3)cc2-c2ccccc2)sc1C(=O)/C=C/c1ccc(Cl)c(Cl)c1
13.4 µM (inactive)

// query GI50 value for entry O=C1c2cccc3cccc(c23)C(=O)N1CCN(CCO)CCO
30.6 µM (inactive)

// query GI50 value for entry CC12CCC3C(CCC4(O)C=CCCC34C=O)C1(O)CC(O)C2c1ccc(=O)oc1 (stereo unspecified)
0.0578 µM (active)

====

Tested on: SF-268
measurement protocol: NCI tumour cell line growth inhibition, 48 h
Where a name gives a salt, the structure may show the parent alone. Activity calls are given as the source filed them. No stated cut-off is given here; in the data, active = GI50 up to about 1.1 µM and inactive = higher.
Assign a class; possible classes are active, inactive

Look up the recorded call for N#C/C(=C/NC(=S)NCc1ccccc1)C(N)=O in this test.
inactive

Look up the recorded call for COC1=CC(=O)c2c(c(-c3nc(C)cs3)cn2C)C1=O in this test.
inactive

Look up the recorded call for Cc1cccc2c1c1ccc3c(c1n2C)C(=O)C=CC3=O in this test.
inactive

Look up the recorded call for COc1ccc(S(=O)(=O)c2ccccc2[N+](=O)[O-])cc1 in this test.
inactive

Look up the recorded call for CCC1(C)N=c2c(ncn2N=C(C)C)=C(C(N)=O)N1 (stereo not given) in this test.
inactive

Look up the recorded call for COc1ccc(N2C(=O)C3ON(C(C(N)=O)c4ccccc4)C(c4cc5ccccc5c5ccccc45)C3C2=O)cc1 (stereo not given) in this test.
inactive

Look up the recorded call for O=C(N[C@H]1CC2(C=C(I)C(=O)C(I)=C2)OC1=O)OCc1ccccc1 in this test.
inactive

Look up the recorded call for O=C1c2c(O)cccc2-c2nn(CCNCCO)c3ccc(NCCNCCO)c1c23 [LOSOXANTRONE HYDROCHLORIDE] in this test.
active

Look up the recorded call for C=CCOc1ccc(C2c3c(n[nH]c3O)CC(O)(OCC)C2C(=O)OCC)cc1OC (stereo not given) in this test.
inactive

Look up the recorded call for COc1cc2c(cc1OC)C1CN3CCCC3C(O)C1c1cc(OC)c(OC)cc1-2 (stereo not given) in this test.
inactive

All figures here come from ChEMBL document CHEMBL1201862.
